Source of measurements: patent US10479770B2

# reported IC50; entries follow
tgt: UniProt:P42338
Sequence (P42338 whole entry, canonical isoform): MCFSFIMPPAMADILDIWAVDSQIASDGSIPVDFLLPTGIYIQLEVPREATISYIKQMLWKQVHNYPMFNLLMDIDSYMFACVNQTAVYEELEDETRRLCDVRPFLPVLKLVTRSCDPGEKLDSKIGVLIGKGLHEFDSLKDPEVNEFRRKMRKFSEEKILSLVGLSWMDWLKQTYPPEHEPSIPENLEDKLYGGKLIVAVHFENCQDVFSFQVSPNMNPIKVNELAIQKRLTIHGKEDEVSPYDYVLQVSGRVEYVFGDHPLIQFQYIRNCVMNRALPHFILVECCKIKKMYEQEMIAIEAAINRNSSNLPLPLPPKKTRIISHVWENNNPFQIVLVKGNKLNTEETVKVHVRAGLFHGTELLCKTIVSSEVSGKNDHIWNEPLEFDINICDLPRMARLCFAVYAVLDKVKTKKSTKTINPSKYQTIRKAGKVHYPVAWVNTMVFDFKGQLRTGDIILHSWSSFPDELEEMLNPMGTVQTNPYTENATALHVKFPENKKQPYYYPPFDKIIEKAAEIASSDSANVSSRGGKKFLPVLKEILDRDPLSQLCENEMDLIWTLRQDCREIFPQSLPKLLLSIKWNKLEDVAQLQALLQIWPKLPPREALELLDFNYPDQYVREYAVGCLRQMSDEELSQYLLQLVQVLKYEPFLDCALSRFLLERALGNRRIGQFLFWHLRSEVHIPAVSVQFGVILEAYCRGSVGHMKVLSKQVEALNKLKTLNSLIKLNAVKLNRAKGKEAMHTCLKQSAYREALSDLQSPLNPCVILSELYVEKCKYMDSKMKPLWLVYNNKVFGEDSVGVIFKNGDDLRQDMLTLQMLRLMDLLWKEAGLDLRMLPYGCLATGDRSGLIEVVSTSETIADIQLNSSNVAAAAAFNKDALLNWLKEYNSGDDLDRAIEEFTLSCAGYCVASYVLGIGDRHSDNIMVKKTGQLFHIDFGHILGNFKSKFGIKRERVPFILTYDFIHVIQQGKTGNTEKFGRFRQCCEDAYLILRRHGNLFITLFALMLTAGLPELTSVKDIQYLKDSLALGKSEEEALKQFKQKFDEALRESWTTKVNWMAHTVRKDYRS
Sequence (P27986 whole entry partner, canonical isoform): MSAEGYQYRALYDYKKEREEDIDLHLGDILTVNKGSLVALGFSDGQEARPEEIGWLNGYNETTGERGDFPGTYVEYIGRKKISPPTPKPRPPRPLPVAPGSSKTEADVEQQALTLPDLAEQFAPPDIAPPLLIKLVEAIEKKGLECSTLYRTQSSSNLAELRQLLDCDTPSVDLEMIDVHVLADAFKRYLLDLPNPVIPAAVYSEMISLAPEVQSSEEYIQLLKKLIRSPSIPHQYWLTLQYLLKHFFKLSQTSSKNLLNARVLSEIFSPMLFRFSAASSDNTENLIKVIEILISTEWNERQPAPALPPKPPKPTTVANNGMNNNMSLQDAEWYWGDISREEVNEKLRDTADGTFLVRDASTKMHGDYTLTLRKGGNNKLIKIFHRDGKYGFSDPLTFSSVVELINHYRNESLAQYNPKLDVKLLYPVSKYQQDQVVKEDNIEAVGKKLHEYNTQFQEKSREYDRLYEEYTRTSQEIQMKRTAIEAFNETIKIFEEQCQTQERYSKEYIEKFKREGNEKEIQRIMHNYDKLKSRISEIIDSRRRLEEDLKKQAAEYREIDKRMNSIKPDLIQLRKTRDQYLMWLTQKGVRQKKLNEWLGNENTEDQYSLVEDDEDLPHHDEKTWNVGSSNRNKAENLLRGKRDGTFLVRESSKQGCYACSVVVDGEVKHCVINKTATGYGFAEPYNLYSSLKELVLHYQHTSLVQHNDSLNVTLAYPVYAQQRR
assay-name: TR-FRET enzymatic activity assay against PI3K isoforms
assay-setup: 2×Km ATP, 2 μM PIP2, 30 minutes at 25° C., recombinant heterodimeric PI3Kβ 25-50 pM, read-out: IC50-PIP-Beta
Method: The compounds of formula (I) were characterized for their enzymatic activity against the PI3K isoforms. The activities were measured using a time-resolved fluorescence resonance energy transfer (TR-FRET) assay. TR-FRET monitored the formation of 3,4,5-inositol triphosphate molecule that competed with fluorescently labeled PIPS for binding to the GRP-1 pleckstrin homology domain protein. Class I PI3K isoforms were expressed and purified as heterodimeric recombinant proteins. […]

[
  {
    "smiles-record": "Cc1nc2c(-c3nnc[nH]3)cc(N3CCOCC3)cc2n1-c1cccc2c(F)cccc12",
    "tgt": "UniProt:P42338",
    "value-units": "nM",
    "IC50": 5
  },
  {
    "smiles-record": "Cc1nc2c(-c3nnc[nH]3)cc(N3CCOCC3)cc2n1-c1cnc2cccc(Cl)c2c1",
    "tgt": "UniProt:P42338",
    "value-units": "nM",
    "IC50": 28
  },
  {
    "smiles-record": "Cc1nc2c(-c3nnc[nH]3)cc(N3CCOCC3)cc2n1-c1cnc2c(Cl)cccc2c1",
    "tgt": "UniProt:P42338",
    "value-units": "nM",
    "IC50": 190
  },
  {
    "smiles-record": "COC(=O)c1cc(N2CCOCC2)cc2c1nc(C)n2-c1cccc2ccccc12",
    "tgt": "UniProt:P42338",
    "value-units": "nM",
    "IC50": 140
  },
  {
    "smiles-record": "Cc1nc2c(C(N)=O)cc(N3CCOCC3)cc2n1-c1cnc2c(Cl)cccc2c1",
    "tgt": "UniProt:P42338",
    "value-units": "nM",
    "IC50": 2300
  },
  {
    "smiles-record": "Cc1nc2c(C(N)=O)cc(N3CCOCC3)cc2n1-c1cnc2cccc(Cl)c2c1",
    "tgt": "UniProt:P42338",
    "value-units": "nM",
    "IC50": 390
  },
  {
    "smiles-record": "Cc1nnc(-c2cc(N3CCOCC3)cc3c2nc(C)n3-c2ccc(F)c3ccccc23)[nH]1",
    "tgt": "UniProt:P42338",
    "value-units": "nM",
    "IC50": 43
  },
  {
    "smiles-record": "Cc1nc2c(C(=O)O)cc(N3CCOCC3)cc2n1-c1cccc2ccccc12",
    "tgt": "UniProt:P42338",
    "value-units": "nM",
    "IC50": 1800
  }
]
